Catalogue of growth readings, one per entry.
Tested on: BT-549 breast
Test: NCI-60 one-dose screen, 48 h (100 = growth as untreated, 0 = no growth, -100 = all killed)
Settings: 10 µM unless noted
Compounds without any hit were thinned out: in the full panel of roughly 83,000, 20% have a hit.
reported property: growth (%)

molecule: CN(C)[C@@H]1C(=O)C(C(N)=O)=C(O)[C@@]2(O)C(=O)C3=C(O)c4c(O)ccc(Cl)c4[C@@](C)(O)[C@H]3C[C@@H]12
reported property: growth
test result: 87.6
--
molecule: O=C(Cc1ccccc1)c1ccccc1
reported property: growth
test result: 100
--
molecule: COC1C(O)CC(OC2CC(Oc3cc4cc5c(c(O)c4c(O)c3C)C(=O)[C@@H](OC3CC(OC4CC(OC6CC(C)(O)C(OC(C)=O)C(C)O6)C(O)C(C)O4)C(O)C(C)O3)[C@H]([C@H](OC)C(=O)[C@@H](O)[C@@H](C)O)C5)OC(C)C2OC(C)=O)OC1C (some centres undefined)
reported property: growth
test result: -68.3
--
molecule: Nc1cccnc1
reported property: growth
test result: 110
